All values here come from patent US10519159B2.

Test system: HIV-1 (H9/IIIB strain)
EXPERIMENTAL_PROTOCOL: Multiple round HIV-1 infection assay (Viking assay) in MT4-GFP cells
Assay type: cell-based
CONDITION_LABEL: Human immunodeficiency virus 1, IIIB, Table 1; MT4-GFP cells infected with HIV-1 H9/IIIB, 50% normal human serum; read-out: Viking, IC50 (50% NHS)
RECORDED_METRIC: IC50 (nM)
Expressed in nM, but write only the number.

CCCOC(=O)C(C)(C)N[P@](=O)(CO[C@H](C)Cn1cnc2c(N)ncnc21)OCc1ccc(F)cc1C(=O)OC(C)C (single isomer, unassigned) [Example 7B]    5.55

Kindly consider the entry below.
Request: // Input: CCCOC(=O)C(C)(C)N[P@@](=O)(CO[C@H](C)Cn1cnc2c(N)ncnc21)OCc1ccc(F)cc1C(=O)OC(C)C (single isomer, unassigned) [Example 7A] . Output its IC50 only.
Response: 654

====

Test system: HIV-1 (H9/IIIB strain)
EXPERIMENTAL_PROTOCOL: Multiple round HIV-1 infection assay (Viking assay) in MT4-GFP cells
Type: cell-based
CONDITION_LABEL: Table 1; MT4-GFP cells infected with HIV-1 H9/IIIB, 10% normal human serum; read-out: Viking, IC50 (10% NHS)
RECORDED_METRIC: IC50 (nM)
Expressed in nM, but write only the number.

CC(C)OC(=O)C1(COP(=O)(CO[C@H](C)Cn2cnc3c(N)ncnc32)NC(C)(C)C(=O)OC(C)C)CC1 (single isomer, unassigned) [Example 3B]    16.8
CCCSC(=O)C(C)(C)NP(=O)(CO[C@H](C)Cn1cnc2c(N)ncnc21)OCCC(=O)OC(C)C (single isomer, unassigned) [Example 13A]    5.08
CCCSC(=O)C(C)(C)NP(=O)(CO[C@H](C)Cn1cnc2c(N)ncnc21)OCCC(=O)OC(C)C (single isomer, unassigned) [Example 13B]    99.6
CCOC(=O)C1(CCOP(=O)(CO[C@H](C)Cn2cnc3c(N)ncnc32)NC(C)(C)C(=O)OC(C)C)CC1 (single isomer, unassigned) [Example 4B]    7.84
CCCOC(=O)C(C)(C)NP(=O)(CO[C@H](C)Cn1cnc2c(N)ncnc21)OCCc1cccc(C(=O)OC(C)C)c1 (single isomer, unassigned) [Example 11A]    2.18

Request: // Input: CC(C)OC(=O)CCOP(=O)(CO[C@H](C)Cn1cnc2c(N)ncnc21)NC(C)(C)C(=O)OC(C)C (single isomer, unassigned) [Example 2B] . Output its IC50 only.
Response: 601

Request: // Input: CCOC(=O)C1(CCOP(=O)(CO[C@H](C)Cn2cnc3c(N)ncnc32)NC(C)(C)C(=O)OC(C)C)CC1 (single isomer, unassigned) [Example 4A] . Output its IC50 only.
Response: 252

Request: // Input: CCCOC(=O)C(C)(C)NP(=O)(CO[C@H](C)Cn1cnc2c(N)ncnc21)OCCC(=O)OC(C)C (single isomer, unassigned) [Example 1A] . Output its IC50 only.
Response: 23.2

Request: // Input: CCCOC(=O)C(C)(C)NP(=O)(CO[C@H](C)Cn1cnc2c(N)ncnc21)OCCC(=O)OC(C)C (single isomer, unassigned) [Example 1B] . Output its IC50 only.
Response: 5.09

Request: // Input: CCCOC(=O)C(C)(C)NP(=O)(CO[C@H](C)Cn1cnc2c(N)ncnc21)OCCc1cccc(C(=O)OC(C)C)c1 (single isomer, unassigned) [Example 11B] . Output its IC50 only.
Response: 45.8

Request: // Input: CC(C)OC(=O)C(C)(C)COP(=O)(CO[C@H](C)Cn1cnc2c(N)ncnc21)NC(C)(C)C(=O)OC(C)C (single isomer, unassigned) [Example 9A] . Output its IC50 only.
Response: 173

Request: // Input: CC(C)OC(=O)C[C@H](C)OP(=O)(CO[C@H](C)Cn1cnc2c(N)ncnc21)NC(C)(C)C(=O)OC(C)C (single isomer, unassigned) [Example 10B] . Output its IC50 only.
Response: 284

Request: // Input: CCCOC(=O)C(C)(C)NP(=O)(CO[C@H](C)Cn1cnc2c(N)ncnc21)OCC[C@H](C)C(=O)OC(C)C (single isomer, unassigned) [Example 6B] . Output its IC50 only.
Response: 73.1
